Reported log10(koff) values for a set of binders
Molecular target: T1, vascular endothelial growth factor (VEGF) (UniProt P15692-4 27-191, limits assumed, biotinylated)
T1 construct: Soluble biotinylated VEGF used to label cells that display the peptides; also called biotinylated VEGF
T1 sequence (P15692 other isoform, or with tags, fused parts or gaps limits assumed): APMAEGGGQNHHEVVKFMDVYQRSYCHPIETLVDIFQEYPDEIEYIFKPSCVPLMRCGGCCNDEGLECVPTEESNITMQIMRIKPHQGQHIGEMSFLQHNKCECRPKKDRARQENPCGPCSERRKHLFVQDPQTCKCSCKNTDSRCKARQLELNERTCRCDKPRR
Test: flow cytometry, peptide displayed on bacterial cell surface, dissociation of biotinylated VEGF at 37° C.
Bridge positions count the residues as written; N and C are the ends. Ends that are not written are not given here.
Recorded Metric: log10(koff) (log10 of the value in s⁻¹)

binder="CPVQTMWDWECMRAFIEG (disulfide 1-11 (inferred), not shown: CPXopt bacterial display scaffold (carrier)) [L2.F3B.08]" reported_result=-2.38
binder="NFGYGKWEWDYGKWLEKVG (not shown: CPXopt bacterial display scaffold (carrier)) [L2.F4.04]" reported_result=-2.89
binder="SSKCGRWGETPCLAEGGGSGGGNFGYGKWEWDYGKWLEKVG (also called bidentate peptide L3.F5A.01; not shown: CPXopt bacterial display scaffold (carrier)) [L3.F5A.01]" reported_result=-3.92
binder="VTSRYEMREDGSWKKGGGSGGGNFGYGKWEWDYGKWLEKVG (not shown: CPXopt bacterial display scaffold (carrier)) [L3.F5A.02]" reported_result=-3.13
binder="AKRSSYSMWGAMPGGGSGGGNFGYGKWEWDYGKWLEKV (Displayed on the E. coli surface as a fusion to CPXopt; the letters do not carry the scaffold., Peptide 2 is printed without the final G of L2.F4.04; not shown: CPXopt bacterial display scaffold that carried the peptide on the cell surface) [L3.F5A.03]" reported_result=-3.22
binder="SYVLKEWSVPSWGKPGGGSGGGNFGYGKWEWDYGKWLEKV (Displayed on the E. coli surface as a fusion to CPXopt; the letters do not carry the scaffold., Peptide 2 is printed without the final G of L2.F4.04; not shown: CPXopt bacterial display scaffold that carried the peptide on the cell surface) [L3.F6.01]" reported_result=-3.60
binder="SKLKTLLWQQGGGSGGGNFGYGKWEWDYGKWLEKV (Displayed on the E. coli surface as a fusion to CPXopt; the letters do not carry the scaffold., Peptide 2 is printed without the final G of L2.F4.04; not shown: CPXopt bacterial display scaffold that carried the peptide on the cell surface) [L3.F6.02]" reported_result=-2.85

The origin of these recorded values is patent US20090035317A1.
